target: human VWF (human); experiment: ELISA
Sequence (P04275 whole entry): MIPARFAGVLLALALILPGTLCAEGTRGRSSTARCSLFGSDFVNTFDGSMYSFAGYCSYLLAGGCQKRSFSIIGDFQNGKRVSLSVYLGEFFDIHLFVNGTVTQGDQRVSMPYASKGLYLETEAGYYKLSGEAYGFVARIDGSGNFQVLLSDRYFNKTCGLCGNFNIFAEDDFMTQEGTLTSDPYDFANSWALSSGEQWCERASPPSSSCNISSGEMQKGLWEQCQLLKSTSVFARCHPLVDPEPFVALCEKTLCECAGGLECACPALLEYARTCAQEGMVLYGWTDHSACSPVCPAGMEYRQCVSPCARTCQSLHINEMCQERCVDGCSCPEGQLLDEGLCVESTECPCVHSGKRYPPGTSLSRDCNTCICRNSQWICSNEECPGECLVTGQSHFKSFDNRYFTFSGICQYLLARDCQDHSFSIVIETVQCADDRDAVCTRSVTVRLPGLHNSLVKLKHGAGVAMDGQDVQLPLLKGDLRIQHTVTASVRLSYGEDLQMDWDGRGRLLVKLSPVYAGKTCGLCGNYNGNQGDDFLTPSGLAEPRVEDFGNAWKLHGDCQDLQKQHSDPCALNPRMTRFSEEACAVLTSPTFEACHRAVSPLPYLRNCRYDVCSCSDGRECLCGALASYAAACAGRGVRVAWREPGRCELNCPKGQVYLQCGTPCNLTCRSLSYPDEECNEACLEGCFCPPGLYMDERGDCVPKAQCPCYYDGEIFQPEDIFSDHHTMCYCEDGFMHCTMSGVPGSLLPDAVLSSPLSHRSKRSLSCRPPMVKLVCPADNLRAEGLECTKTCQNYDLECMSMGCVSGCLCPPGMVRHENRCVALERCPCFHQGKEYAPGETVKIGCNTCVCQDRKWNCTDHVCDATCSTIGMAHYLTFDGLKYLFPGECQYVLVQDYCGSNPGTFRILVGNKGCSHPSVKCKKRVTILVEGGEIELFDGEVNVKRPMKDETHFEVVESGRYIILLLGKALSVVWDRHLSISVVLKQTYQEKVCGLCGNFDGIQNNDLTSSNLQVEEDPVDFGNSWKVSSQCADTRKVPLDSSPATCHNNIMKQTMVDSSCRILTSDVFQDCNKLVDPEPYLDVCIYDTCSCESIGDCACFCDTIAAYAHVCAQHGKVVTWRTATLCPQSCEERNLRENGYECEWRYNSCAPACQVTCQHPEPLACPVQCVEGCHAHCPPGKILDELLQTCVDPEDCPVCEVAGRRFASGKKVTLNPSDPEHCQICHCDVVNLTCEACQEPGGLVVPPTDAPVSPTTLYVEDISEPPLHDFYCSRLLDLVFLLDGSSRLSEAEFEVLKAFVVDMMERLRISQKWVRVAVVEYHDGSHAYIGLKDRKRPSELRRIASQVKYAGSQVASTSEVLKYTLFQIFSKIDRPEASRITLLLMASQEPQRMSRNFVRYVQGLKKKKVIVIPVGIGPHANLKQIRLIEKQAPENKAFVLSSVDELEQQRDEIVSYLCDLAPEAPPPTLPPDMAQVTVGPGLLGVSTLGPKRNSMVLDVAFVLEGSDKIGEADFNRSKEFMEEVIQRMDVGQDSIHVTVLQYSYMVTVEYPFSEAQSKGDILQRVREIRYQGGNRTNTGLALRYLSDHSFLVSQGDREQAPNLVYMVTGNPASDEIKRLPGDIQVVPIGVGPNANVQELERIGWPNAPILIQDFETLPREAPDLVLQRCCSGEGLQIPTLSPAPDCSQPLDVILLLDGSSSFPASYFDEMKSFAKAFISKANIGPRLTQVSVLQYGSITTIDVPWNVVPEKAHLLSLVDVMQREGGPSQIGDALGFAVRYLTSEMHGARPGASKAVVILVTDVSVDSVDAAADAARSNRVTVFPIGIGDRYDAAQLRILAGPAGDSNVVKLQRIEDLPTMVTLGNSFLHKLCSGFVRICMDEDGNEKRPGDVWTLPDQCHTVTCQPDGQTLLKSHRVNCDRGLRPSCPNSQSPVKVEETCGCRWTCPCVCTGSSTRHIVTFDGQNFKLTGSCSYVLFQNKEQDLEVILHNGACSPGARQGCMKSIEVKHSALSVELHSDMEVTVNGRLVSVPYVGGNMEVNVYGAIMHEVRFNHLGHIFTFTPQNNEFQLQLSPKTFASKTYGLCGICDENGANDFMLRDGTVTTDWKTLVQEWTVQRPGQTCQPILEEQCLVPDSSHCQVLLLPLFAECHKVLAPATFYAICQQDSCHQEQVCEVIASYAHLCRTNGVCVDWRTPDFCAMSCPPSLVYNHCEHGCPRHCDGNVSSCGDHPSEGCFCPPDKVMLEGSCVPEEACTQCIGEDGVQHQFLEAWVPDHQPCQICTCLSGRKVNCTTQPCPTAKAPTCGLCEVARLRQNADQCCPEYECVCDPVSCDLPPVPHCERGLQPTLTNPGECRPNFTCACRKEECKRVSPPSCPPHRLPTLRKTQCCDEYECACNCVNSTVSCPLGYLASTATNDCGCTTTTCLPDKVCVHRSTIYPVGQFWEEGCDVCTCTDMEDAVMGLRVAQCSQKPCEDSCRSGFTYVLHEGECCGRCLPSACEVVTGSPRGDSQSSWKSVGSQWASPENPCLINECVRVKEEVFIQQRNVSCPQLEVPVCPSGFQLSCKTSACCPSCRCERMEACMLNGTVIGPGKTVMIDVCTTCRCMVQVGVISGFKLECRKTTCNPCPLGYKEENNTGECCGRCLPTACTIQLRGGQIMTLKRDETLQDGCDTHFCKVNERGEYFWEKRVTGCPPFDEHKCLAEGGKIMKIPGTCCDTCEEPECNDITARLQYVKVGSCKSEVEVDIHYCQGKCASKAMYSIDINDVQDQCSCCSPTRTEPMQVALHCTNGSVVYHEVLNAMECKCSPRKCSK
I'd appreciate it if you could supply EC50 values for the items below.
Answers are plain numbers, in µg/mL.

# BINDER, QUANTITY_UNIT, EC50
measured = [
    ("25B05_H1-L1 (antibody, V domains shown) VH: QVQLVQSGAEVKKPGASVKVSCKASGYTFTDYFMNWVRQAPGQRLEWMGVINPHNGGTSYSQKFQGRVTITRDTSASTAYMELSSLRSEDTAVYYCARRPLGSDYWGQGTTVTVSS VL: DIQMTQSPSSVSASVGDRVTITCKASQNVGTAVAWYQQKPGKAPKLLIYSASSRYTGVPSRFSGSGSGTDFTLTISSLQPEDFATYYCQQYSSYPLTFGQGTKLEIK", "µg/mL", 0.0312),
]

I'd like to know its EC50. The binder in question is 33D03_H3-L3 (antibody, V domains shown) VH: QVQLVQSGAEVKKPGASVKVSCKASGYTFTDYYLNWVRQAPGQRLEWMGIINPYNGGTNYSQKFQGRVTITVDKSSSTAYMELSSLRSEDTAVYYCASEGLRTWFTYWGQGTLVTVSS VL: DIVMTQSPDSLAVSLGERATINCKSSQSLSNSGNQKIYLAWYQQKPGQPPKLLIYGASSRESGVPDRFSGSGSEIDFTLTISSLQAEDVAVYYCQNDHSHPFTFGQGTKLEIK
0.0483
